- Tested on: SK-MEL-2 melanoma
- Experimental Details: NCI tumour cell line growth inhibition, 48 h
Measurement Type: TGI (µM)
Reply numerically in µM, unit not repeated.

Tell me measured TGI for C=C(C)[C@@H]1CC[C@]2(CO)CC[C@]3(C)[C@H](CC[C@@H]4[C@@]5(C)CCC(NCCc6ccc(O)cc6)C(C)(C)[C@@H]5CC[C@]43C)[C@@H]12 (stereo partly specified) please.
3.19

Tell me measured TGI for CCN(CC)CCCC(C)N=c1cc(Nc2cc(=NC(C)CCCN(CC)CC)c3cc(OC)ccc3o2)oc2ccc(OC)cc12 (stereo unspecified) please.
2.71

Tell me measured TGI for COc1cc(Nc2nc3ccc(C(F)(F)F)cc3nc2C(=O)O)cc(OC)c1OC please.
45.3
